Target system: DRB1*1201 (DR5w12) (Homo sapiens, UniProt P01903+P01911, A100R/A169T/D57E/D86V/F55L/H45Y/K41T/L162R/M171V/P40S/Q125H/Q178H/Q39Y/Q99D/R42G/S66L/T262R/V114A/V67L/W38E/Y59H/Y61H/Y89S)
Construct: endogenous in cells; host or cells: Herluf
Test summary: HLA class II peptide binding assay
Measurement conditions: Table XIXb; DR5w12
DR5w12 binding data: recorded values
Give only the figure.

Answered examples (2):
>  <Biopolymer sequence>
VIGPFMKAV

>  <Reported>
0.0920

$$$$
>  <Biopolymer sequence>
FMKAVCVEV

>  <Reported>
0.0038

$$$$

Query string: Recorded DR5w12 binding data for LGNVSTVLL , please?
Result string: 0.0001

Query string: Param item: IQNHTLETV
Result string: 0.0001

Query string: Param item: LATSVLAGL
Result string: 0.0073

----------
Target system: DRB5*0101 (DR2w2β2) (Homo sapiens, UniProt P01903+Q30154)
Construct: expressed in transfected cells; host or cells: L416.3 (fibroblasts) or GM3107
Type: binding
Please use YES whenever DR2w2β2 binding information is not below -0.0005, and NO whenever it is.

>  <Biopolymer sequence>
LLMDCSGSI

>  <Class label>
YES

$$$$
>  <Biopolymer sequence>
INRENANQL

>  <Class label>
YES

$$$$
>  <Biopolymer sequence>
IQDSLKESR

>  <Class label>
NO

$$$$
>  <Biopolymer sequence>
VCNDEVDLY

>  <Class label>
YES

$$$$
>  <Biopolymer sequence>
LYADSAWEN

>  <Class label>
NO

$$$$

Query string: // inclusive: DR2w2β2 binding information at least -0.0005? input: IKNSEKDEI
Result string: NO

Query string: Param item: LNKEGKLIE
Result string: NO

Query string: Param item: VEVEKTASC
Result string: NO

Query string: Param item: ILTDGIPDS
Result string: NO

----------
Target system: HLA-A*0201 (Homo sapiens, UniProt P04439, D140Y/D185E/D98H/E176V/E277Q/G131W/G231S/I119V/I121R/I166T/I218V/L300P/L318F/N151K/N90K/P208A/P217A/Q86G/Q94H/R138H/R169H/T345S)
Test summary: HLA class I peptide binding assay
Measurement conditions: Malaria A02 motif peptides, Table VIII; unit not given
A*0201 (binding information): recorded values
Give only the figure.

Answered examples (6):
>  <Biopolymer sequence>
WVNHAVPLA

>  <Readout name>
A*0201 (binding information)

>  <Reported>
0.0008

$$$$
>  <Biopolymer sequence>
KLRICPICHKKL

>  <Readout name>
A*0201 (binding information)

>  <Reported>
0.0001

$$$$
>  <Biopolymer sequence>
LLMDCSGSI

>  <Readout name>
A*0201 (binding information)

>  <Reported>
0.0460

$$$$
>  <Biopolymer sequence>
FMKAVCVEV

>  <Readout name>
A*0201 (binding information)

>  <Reported>
0.0290

$$$$
>  <Biopolymer sequence>
VLLGGVCLVL

>  <Readout name>
A*0201 (binding information)

>  <Reported>
0.0290

$$$$
>  <Biopolymer sequence>
AMICLIQQLNL

>  <Readout name>
A*0201 (binding information)

>  <Reported>
0.0006

$$$$

Let's switch to this sequence now.
Query string: Recorded A*0201 (binding information) for QLVVILIDGI , please?
Result string: 0.0002
